# test system: biotinylated labeled human GPC3 protein (produced in-house) (human, UniProt P51654 25-559, limits assumed, biotinylated (Dojindo, Cat. No. LK03); sites not stated)
# assay info: ELISA, biotinylated human GPC3 protein
The entries below are paired with their reported OD450 at 0.004 nM.
Please state the figure in OD450; there is no need to write the unit.

Example cases with answers are listed next.
hAb005LH1L1 (antibody, human IgG1, V domains shown, Humanized F3.54.12; VH H1 + VL L1; expressed as human IgG1) VH: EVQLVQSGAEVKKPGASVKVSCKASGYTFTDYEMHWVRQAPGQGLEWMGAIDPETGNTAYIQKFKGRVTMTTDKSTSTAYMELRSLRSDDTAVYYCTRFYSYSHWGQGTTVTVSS VL: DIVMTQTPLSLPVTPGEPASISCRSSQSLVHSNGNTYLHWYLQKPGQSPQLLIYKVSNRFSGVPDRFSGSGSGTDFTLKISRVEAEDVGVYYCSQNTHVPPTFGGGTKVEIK : 0.202
hAb001H1L1a (antibody, human IgG1, V domains shown, Humanized F2.169.2; VH H1 + VL L1a; expressed as human IgG1) VH: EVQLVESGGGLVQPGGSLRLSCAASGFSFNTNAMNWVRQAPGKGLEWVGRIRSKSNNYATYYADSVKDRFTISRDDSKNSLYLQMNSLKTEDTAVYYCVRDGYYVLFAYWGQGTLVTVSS VL: DIVMTQTPLSLPVTPGEPASISCRFSQSIVNSDGNTYLEWFLQKPGQSPQLLIYKVSNRFSGVPDRFSGSGSGTDFTLKISRVEAEDVGVYYCFQGSHVPFTFGQGTKLEIK : 0.157

// next entry
Ask: Record request: OD450 at 0.004 nM value, item hAb005LH2L1 (antibody, human IgG1, V domains shown, Humanized F3.54.12; VH H2 + VL L1; expressed as human IgG1) VH: EVQLVQSGAEVKKPGASVKVSCKASGYTFTDYEMHWVRQAPGQGLEWMGAIDPETGNTAYIQKFKGRVTLTTDKSTSTAYMELRSLRSDDTAVYYCTRFYSYSHWGQGTTVTVSS VL: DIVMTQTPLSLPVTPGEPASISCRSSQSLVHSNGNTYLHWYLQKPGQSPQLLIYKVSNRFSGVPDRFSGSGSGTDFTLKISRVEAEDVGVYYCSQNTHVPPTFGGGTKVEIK
Reply: 0.185
